# SYSTEM: T1, Ax1 protein, extracellular domain (human, UniProt P30530 26-451)
# T1 construct: extracellular domain; also called Axl; Ark
# T1 sequence (looked up): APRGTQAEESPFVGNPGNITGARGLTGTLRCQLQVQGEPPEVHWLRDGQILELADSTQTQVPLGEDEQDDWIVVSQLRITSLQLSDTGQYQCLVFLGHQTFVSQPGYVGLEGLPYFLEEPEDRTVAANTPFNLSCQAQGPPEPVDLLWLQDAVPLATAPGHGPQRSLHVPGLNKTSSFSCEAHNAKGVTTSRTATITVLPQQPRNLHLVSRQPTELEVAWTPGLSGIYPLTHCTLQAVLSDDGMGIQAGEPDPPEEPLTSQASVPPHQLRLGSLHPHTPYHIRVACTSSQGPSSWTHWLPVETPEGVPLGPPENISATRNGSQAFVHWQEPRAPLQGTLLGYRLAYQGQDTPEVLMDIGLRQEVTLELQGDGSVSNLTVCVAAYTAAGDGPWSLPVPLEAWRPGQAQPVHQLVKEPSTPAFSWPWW
# ASSAY NAME: ELISA, mutant diluted 1:9
QUANTITY: Affinity ELISA CPE mutant ratio (1:9, pH 6.0/7.4)

Record excerpt, results attached:
HC-W110R (antibody, V domains shown) VH: EVQLVQSGAEVKKPGATVKISCKVSGYSFTGHTMNWIRQPPGKGLEWIGLIKPSNGGTSYNQKFKGRVTISADKSISTAYLQWSSLKASDTAMYYCAHGHYESYFAMDYRGQGTLVTVSS VL: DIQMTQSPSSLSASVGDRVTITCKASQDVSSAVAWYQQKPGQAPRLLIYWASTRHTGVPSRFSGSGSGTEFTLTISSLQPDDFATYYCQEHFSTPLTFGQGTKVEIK
1.06
LC-V029N (antibody, V domains shown, CPE single point mutant) VH: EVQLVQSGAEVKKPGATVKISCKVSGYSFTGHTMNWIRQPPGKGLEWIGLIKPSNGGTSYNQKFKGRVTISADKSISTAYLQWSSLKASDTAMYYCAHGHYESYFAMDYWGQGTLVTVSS VL: DIQMTQSPSSLSASVGDRVTITCKASQDNSSAVAWYQQKPGQAPRLLIYWASTRHTGVPSRFSGSGSGTEFTLTISSLQPDDFATYYCQEHFSTPLTFGQGTKVEIK
2.65

Alright, here's another binder for you.
The binder LC-H091V (antibody, V domains shown, CPE single point mutant) VH: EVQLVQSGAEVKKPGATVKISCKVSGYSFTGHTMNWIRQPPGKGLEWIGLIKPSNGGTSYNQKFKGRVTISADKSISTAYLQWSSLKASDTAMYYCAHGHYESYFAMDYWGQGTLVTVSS VL: DIQMTQSPSSLSASVGDRVTITCKASQDVSSAVAWYQQKPGQAPRLLIYWASTRHTGVPSRFSGSGSGTEFTLTISSLQPDDFATYYCQEVFSTPLTFGQGTKVEIK showed Affinity ELISA CPE mutant ratio (1:9, pH 6.0/7.4) equal to 1.17

Every entry's value here was drawn from patent US20240199746A1.
